# System: N2a cells transfected with the human Swedish APP mutation
# Test summary: Aβ generation in N2a cells transfected with human Swedish APP and normal or ΔE9 presenilin 1 (immunoprecipitation, autoradiography, Western blot)
# Format: cell-based, mouse
# Condition notes: N2a cells expressing APP and either normal human presenilin 1 or ΔE9 mutant presenilin 1; read-out: IC50 (inhibited total levels of Aβ by 50%)
Measured quantity: IC50

For this molecule ( CSc1cccc(Nc2ncc3cc(-c4c(Cl)cccc4Cl)c(=O)n(C)c3n2)c1 [Compound 1] ), measured IC50 is < 1000 nM
